# System name: JAK3 (Homo sapiens, UniProt P52333)
# Sequence (P52333 1-1124): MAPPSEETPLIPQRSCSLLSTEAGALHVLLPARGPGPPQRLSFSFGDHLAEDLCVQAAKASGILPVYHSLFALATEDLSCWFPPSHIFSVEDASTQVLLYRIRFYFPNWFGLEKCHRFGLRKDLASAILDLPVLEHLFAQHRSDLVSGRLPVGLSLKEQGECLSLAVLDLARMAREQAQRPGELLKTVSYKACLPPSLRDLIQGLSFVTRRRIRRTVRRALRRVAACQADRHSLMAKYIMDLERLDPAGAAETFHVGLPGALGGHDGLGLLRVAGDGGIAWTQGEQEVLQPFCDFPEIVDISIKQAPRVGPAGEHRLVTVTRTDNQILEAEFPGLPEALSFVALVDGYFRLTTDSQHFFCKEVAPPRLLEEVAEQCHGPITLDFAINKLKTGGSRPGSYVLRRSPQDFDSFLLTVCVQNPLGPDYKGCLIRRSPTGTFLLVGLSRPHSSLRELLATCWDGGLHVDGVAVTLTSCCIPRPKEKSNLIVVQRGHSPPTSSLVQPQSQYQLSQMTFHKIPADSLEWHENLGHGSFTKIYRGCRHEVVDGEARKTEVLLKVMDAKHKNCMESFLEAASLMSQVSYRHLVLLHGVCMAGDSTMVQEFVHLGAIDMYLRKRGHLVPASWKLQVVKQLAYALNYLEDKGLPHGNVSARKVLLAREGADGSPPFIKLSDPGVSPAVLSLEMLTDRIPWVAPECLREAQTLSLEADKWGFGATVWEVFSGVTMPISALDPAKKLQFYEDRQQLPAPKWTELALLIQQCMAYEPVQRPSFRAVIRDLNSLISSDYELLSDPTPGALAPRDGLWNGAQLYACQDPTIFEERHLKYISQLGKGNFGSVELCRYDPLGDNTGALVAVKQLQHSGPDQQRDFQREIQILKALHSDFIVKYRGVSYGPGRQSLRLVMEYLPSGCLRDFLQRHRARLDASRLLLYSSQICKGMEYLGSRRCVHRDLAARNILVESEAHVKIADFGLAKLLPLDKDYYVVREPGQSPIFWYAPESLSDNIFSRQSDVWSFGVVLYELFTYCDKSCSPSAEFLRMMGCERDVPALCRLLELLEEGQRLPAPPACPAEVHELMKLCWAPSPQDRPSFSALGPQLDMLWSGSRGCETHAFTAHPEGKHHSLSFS
# Assay details: Inhibition of a panel of kinases, in vitro HotSpot kinase assay: JAK3
# Assay type: biochemical
# Condition label: fold relative to Btk IC50 value
Define the label as Criterion met when JAK3* IC50 relative to Btk IC50 value is strictly less than 600 x and as Criterion not met in all remaining cases.

// known answers, use as guide
C[C@@H]1[C@H](NC(=O)c2ccc(C3CC3)cc2)CCCN1c1nnc(C(N)=O)c(Nc2cnn(C)c2)n1 :: Criterion not met
C[C@@H]1[C@H](NC(=O)c2ccc(C(C)(C)O)cc2)CCCN1c1cnc(C(N)=O)c(Nc2cnn(C)c2)n1 :: Criterion met
C[C@@H]1[C@H](NC(=O)c2ccc(C3CC3)cc2)CCCN1c1cnc(C(N)=O)c(Nc2cnn(C(F)F)c2)n1 :: Criterion not met
C[C@@H]1[C@H](NC(=O)c2ccc(C3COC3)cc2)CCCN1c1cnc(C(N)=O)c(Nc2cnn(C)c2)n1 :: Criterion met
C[C@@H]1[C@H](NC(=O)c2ccc(C3CC3)cc2)CCCN1c1cnc(C(N)=O)c(Nc2cnn(C3CC3)c2)n1 :: Criterion not met
Cn1cc(Nc2nc(N3CCC[C@@H](NC(=O)c4ccc(C5CC5)cc4)C3)nnc2C(N)=O)cn1 :: Criterion not met

Q) Strictly below 600 x in JAK3* IC50 relative to Btk IC50 value? `C[C@@H]1[C@H](NC(=O)c2ccc(C(C)(C)C)cc2)CCCN1c1cnc(C(N)=O)c(Nc2cnn(C)c2)n1`
A) Criterion not met
